# Average AUC0→t (Peak Intensity, Cps) per record follows
Method: Metabolite profiling and semi-quantitation (peak area-time AUC) of LW6 and its metabolites in mouse plasma after a single i.v. or oral dose of LW6
Type: in vivo, male ICR mice
Condition Label: mouse plasma, LW6 5 mg/kg i.v., n = 3, 0-24 h, LC-MS/MS peak intensity-time curve
Value Kind: Average AUC0→t (Peak Intensity, Cps)

compound="Oc1ccc(C23CC4CC(CC(C4)C2)C3)cc1 [M12]" result="31,345 cps"
compound="O=C(COc1ccc(C23CC4CC(CC(C4)C2)C3)cc1)Nc1cc(C(=O)O)ccc1O [M9]" result="7672 cps"
compound="O=C(O)COc1ccc(C23CC4CC(CC(C4)C2)C3)cc1 [APA]" result="19,697,150 cps"
compound="COC(=O)c1ccc(O)c(NC(=O)COc2ccc(C34CC5CC(CC(C5)C3)C4)cc2)c1 [LW6]" result="1,048,883 cps"
